Target: T1, Human polyclonal immunoglobulin G (IgG) (human)
T1 construct: also called hIgG; IVIG
Experiment: affinity chromatography, peptide on Toyopearl resin, pure human IgG load; yield = IgG eluted/IgG loaded, by Protein G chromatography
*1 amine or outer side, *2 acyl side, *3 side chain or, on linkers, in order; H or OH if unused. Where no end group is shown, it is not given here. [ ]: non-standard residue; d: D form. Tyr(Me) = O-methyl-tyrosine, COc1ccc(C[C@H](N[*:1])C(=O)[*:2])cc1; Trp(1-Me) = Cn1cc(C[C@H](N)C(=O)O)c2ccccc21; Phe(4-Me) = Cc1ccc(C[C@H](N)C(=O)O)cc1; Lys(Me2) = CN(C)CCCC[C@H](N)C(=O)O; Cit = NC(=O)NCCC[C@H](N)C(=O)O
PROPERTY LABEL: IgG yield (%)

H[Trp(1-Me)][Cit]G[Trp(1-Me)]V-{Toyopearl AF‑Amino‑650M resin} (Variant of HWRGWV on Toyopearl resin; also called HWMetCitGWMetV-Toyopearl) [HWMetCitGWMetV]
90
H[Tyr(Me)][Phe(4-Me)][Lys(Me2)][Phe(4-Me)]D-{Toyopearl AF‑Amino‑650M resin} (Variant of HYFKFD on Toyopearl resin, used as a negative control; also called HYMetFMetK(Met)2FMetD-Toyopearl) [HYMetFMetKMet2FMetD]
42
HFRRHL-{Toyopearl AF‑Amino‑650M resin} (Synthetic hexapeptide on Toyopearl resin; also called HFRRHL-Toyopearl)
93
H[Phe(4-Me)][Cit][Cit]HL-{Toyopearl AF‑Amino‑650M resin} (Variant of HFRRHL on Toyopearl resin; also called HFMetCitCitHL-Toyopearl) [HFMetCitCitHL]
90
HWRGWV-{Toyopearl AF‑Amino‑650M resin} (not fully specified, Synthetic hexapeptide made directly on Toyopearl AF-Amino-650M resin after a first Fmoc-Ala-OH coupling, about 0.12 meq/g; also called HWRGWV-Toyopearl; original peptide ligand)
95
HYFKFD-{Toyopearl AF‑Amino‑650M resin} (Synthetic hexapeptide on Toyopearl resin; also called HYFKFD-Toyopearl)
78
